Source: ChEMBL document CHEMBL3784960

Biological target: Metabotropic glutamate receptor 2 (Rattus norvegicus, UniProt P31421)
Sequence (P31421 whole entry): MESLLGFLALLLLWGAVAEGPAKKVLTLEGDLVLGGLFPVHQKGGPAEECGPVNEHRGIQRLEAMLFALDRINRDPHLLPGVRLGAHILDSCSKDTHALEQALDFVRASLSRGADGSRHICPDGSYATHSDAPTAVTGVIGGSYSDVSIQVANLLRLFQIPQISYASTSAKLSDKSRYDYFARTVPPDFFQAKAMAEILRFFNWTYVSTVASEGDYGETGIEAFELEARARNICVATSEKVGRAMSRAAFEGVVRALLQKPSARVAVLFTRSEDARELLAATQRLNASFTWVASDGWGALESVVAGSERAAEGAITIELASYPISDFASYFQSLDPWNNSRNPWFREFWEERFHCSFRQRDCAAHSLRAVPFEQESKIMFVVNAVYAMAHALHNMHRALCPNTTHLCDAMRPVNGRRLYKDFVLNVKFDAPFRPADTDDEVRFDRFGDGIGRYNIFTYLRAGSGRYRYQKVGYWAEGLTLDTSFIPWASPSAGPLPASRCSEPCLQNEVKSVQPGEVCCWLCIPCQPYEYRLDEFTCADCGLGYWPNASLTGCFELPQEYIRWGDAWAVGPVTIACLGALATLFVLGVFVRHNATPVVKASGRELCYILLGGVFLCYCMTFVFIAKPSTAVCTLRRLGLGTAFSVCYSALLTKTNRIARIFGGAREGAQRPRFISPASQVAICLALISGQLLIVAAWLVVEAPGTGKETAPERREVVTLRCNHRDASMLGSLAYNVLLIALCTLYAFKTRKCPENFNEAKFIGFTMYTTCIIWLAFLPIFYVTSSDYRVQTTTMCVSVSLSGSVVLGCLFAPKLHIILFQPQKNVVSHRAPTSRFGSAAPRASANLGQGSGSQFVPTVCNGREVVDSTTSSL
Experiment: Agonist activity at rat mGlu2 receptor by FRET based mGlu sensor assay
pEC50: −log10 of the molar value.

substance-smiles: N[C@@H](C[C@@]1(C(=O)O)C[C@H]1C(=O)O)C(=O)O
pEC50: < 3.00

substance-smiles: N[C@@H](C[C@]1(C(=O)O)C[C@H]1C(=O)O)C(=O)O
pEC50: < 3.00

substance-smiles: N[C@@H](C[C@@]1(C(=O)O)C[C@@H]1C(=O)O)C(=O)O
pEC50: < 3.00

====

# reported pEC50; entries follow
Target: Metabotropic glutamate receptor 8 (Rattus norvegicus, UniProt P70579)
Sequence (P70579 whole entry): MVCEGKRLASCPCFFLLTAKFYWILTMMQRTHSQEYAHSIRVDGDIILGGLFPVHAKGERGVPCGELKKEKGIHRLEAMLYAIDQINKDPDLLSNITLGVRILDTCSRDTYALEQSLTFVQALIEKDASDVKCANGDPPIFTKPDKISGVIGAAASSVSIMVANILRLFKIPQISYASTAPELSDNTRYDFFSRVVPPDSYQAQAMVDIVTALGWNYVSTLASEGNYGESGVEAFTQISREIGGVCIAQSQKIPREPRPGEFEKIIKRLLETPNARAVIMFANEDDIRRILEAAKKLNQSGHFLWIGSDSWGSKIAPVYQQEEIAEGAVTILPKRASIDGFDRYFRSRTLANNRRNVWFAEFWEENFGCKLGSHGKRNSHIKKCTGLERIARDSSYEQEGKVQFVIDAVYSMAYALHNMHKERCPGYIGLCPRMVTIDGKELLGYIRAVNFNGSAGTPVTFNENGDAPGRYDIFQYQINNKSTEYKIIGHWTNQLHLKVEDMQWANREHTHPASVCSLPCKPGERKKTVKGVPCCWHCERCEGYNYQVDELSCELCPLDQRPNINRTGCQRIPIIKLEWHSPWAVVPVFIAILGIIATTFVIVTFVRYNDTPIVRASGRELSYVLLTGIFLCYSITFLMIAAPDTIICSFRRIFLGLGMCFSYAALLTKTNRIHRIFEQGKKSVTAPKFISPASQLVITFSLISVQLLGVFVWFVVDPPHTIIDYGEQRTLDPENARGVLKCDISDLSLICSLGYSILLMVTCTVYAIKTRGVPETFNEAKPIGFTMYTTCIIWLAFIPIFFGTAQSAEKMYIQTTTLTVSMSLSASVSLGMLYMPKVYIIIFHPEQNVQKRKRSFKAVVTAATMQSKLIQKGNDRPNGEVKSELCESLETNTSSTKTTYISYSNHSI
Assay: Agonist activity at rat mGlu8 receptor expressed in HEK293 cells assessed as IP1 accumulation by IP-One functional assay
Type: cell-based
pEC50: −log10 of the molar value.
experimental-readout: pEC50

substance-smiles: N[C@@H](C[C@@H](CCC(=O)O)C(=O)O)C(=O)O
experimental-readout: pEC50
observed-result: < 3.00
--
substance-smiles: N[C@@H](C[C@@]1(C(=O)O)C[C@H]1C(=O)O)C(=O)O
experimental-readout: pEC50
observed-result: < 3.00
--
substance-smiles: N[C@@H](C[C@]1(C(=O)O)C[C@@H]1C(=O)O)C(=O)O
experimental-readout: pEC50
observed-result: < 3.00

====

Molecular target: Metabotropic glutamate receptor 3 (Rattus norvegicus, UniProt P31422)
Sequence (P31422 whole entry): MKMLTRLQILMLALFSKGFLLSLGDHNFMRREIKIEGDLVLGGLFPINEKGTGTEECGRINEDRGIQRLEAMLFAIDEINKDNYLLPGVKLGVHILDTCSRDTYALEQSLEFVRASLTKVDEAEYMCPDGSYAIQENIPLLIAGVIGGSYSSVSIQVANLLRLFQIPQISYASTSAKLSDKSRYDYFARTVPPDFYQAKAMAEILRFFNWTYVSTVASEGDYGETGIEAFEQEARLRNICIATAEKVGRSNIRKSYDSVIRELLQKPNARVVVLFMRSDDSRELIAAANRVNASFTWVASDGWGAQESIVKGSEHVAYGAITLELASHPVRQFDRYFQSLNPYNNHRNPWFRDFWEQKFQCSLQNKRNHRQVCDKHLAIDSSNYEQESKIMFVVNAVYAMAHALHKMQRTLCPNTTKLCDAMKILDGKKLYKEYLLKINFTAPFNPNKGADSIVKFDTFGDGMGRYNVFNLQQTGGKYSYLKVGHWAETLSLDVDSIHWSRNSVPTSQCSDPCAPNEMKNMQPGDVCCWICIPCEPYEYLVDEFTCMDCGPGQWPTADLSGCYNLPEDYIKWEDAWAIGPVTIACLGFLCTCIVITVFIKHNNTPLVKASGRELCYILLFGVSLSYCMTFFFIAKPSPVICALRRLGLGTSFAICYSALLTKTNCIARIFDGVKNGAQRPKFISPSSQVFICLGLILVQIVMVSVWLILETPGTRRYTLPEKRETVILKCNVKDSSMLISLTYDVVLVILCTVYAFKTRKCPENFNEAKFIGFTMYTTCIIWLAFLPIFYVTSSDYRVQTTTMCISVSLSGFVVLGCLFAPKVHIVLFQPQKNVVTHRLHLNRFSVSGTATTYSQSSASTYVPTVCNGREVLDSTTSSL
Assay: Agonist activity at rat mGlu3 receptor expressed in HEK293 cells by [35S]GTP-gamma binding assay
Type: cell-based

substance-smiles: N[C@@H](C[C@@H](CCC(=O)NO)C(=O)O)C(=O)O
EC50: > 1000 µM
--
substance-smiles: CN(O)C(=O)CC[C@H](C[C@H](N)C(=O)O)C(=O)O
EC50: > 1000 µM
--
substance-smiles: N[C@@H](C[C@@H](CCC(=O)O)C(=O)O)C(=O)O
EC50: 348 µM

====

Overview of recorded EC50 for various compounds
Target: Metabotropic glutamate receptor 2 (Rattus norvegicus, UniProt P31421)
Assay: Agonist activity at rat mGlu2 receptor expressed in HEK293 cells assessed as IP1 accumulation by IP-One functional assay
Assay type: cell-based
experimental-readout: EC50

substance-smiles: N[C@@H](C[C@@]1(C(=O)O)C[C@H]1C(=O)O)C(=O)O
observed-result: > 1000 µM

substance-smiles: N[C@@H](C[C@]1(C(=O)O)C[C@@H]1C(=O)O)C(=O)O
observed-result: 33.7 µM

substance-smiles: N[C@@H](C[C@@]1(C(=O)O)C[C@@H]1C(=O)O)C(=O)O
observed-result: > 1000 µM

====

The entries below are paired with their reported pEC50.
Molecular target: Metabotropic glutamate receptor 4 (Rattus norvegicus)
Sequence (P31423 whole entry): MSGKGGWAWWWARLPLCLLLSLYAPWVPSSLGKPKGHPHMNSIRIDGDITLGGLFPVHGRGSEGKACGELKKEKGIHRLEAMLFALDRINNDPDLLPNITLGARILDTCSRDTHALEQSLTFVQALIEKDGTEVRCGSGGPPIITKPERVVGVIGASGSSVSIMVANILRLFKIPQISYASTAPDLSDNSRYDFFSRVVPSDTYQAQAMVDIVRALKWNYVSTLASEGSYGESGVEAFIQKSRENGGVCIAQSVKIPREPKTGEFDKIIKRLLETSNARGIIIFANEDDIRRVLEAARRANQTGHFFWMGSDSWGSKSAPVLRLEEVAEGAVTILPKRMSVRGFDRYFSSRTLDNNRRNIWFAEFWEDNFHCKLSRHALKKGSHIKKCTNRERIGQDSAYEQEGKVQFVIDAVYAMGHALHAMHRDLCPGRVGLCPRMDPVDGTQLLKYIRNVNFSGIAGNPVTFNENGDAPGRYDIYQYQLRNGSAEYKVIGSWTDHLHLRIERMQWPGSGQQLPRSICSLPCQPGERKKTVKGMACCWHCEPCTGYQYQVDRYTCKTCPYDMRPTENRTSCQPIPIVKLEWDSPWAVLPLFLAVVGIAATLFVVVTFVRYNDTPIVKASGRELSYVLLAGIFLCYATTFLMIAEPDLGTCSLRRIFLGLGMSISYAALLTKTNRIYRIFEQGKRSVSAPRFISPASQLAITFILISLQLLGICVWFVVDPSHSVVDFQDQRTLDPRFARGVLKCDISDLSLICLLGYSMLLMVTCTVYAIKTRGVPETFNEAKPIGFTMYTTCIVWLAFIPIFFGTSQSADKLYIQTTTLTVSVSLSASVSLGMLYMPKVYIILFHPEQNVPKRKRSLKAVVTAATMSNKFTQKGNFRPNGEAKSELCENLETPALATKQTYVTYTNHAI
Experiment: Agonist activity at rat mGlu4 receptor expressed in HEK293 cells assessed as IP1 accumulation by IP-One functional assay
Format: cell-based
pEC50: −log10 of the molar value.

substance-smiles: N[C@@H](C[C@]1(C(=O)O)C[C@@H]1C(=O)O)C(=O)O
target-of-assay: Metabotropic glutamate receptor 4 (Rattus norvegicus)
pEC50: < 3.00
--
substance-smiles: N[C@@H](C[C@@H](CCC(=O)O)C(=O)O)C(=O)O
target-of-assay: Metabotropic glutamate receptor 4 (Rattus norvegicus)
pEC50: ≤ 4.00
--
substance-smiles: N[C@@H](C[C@@]1(C(=O)O)C[C@H]1C(=O)O)C(=O)O
target-of-assay: Metabotropic glutamate receptor 4 (Rattus norvegicus)
pEC50: < 3.00

====

Molecular target: Metabotropic glutamate receptor 6 (Rattus norvegicus)
Sequence (P35349 whole entry): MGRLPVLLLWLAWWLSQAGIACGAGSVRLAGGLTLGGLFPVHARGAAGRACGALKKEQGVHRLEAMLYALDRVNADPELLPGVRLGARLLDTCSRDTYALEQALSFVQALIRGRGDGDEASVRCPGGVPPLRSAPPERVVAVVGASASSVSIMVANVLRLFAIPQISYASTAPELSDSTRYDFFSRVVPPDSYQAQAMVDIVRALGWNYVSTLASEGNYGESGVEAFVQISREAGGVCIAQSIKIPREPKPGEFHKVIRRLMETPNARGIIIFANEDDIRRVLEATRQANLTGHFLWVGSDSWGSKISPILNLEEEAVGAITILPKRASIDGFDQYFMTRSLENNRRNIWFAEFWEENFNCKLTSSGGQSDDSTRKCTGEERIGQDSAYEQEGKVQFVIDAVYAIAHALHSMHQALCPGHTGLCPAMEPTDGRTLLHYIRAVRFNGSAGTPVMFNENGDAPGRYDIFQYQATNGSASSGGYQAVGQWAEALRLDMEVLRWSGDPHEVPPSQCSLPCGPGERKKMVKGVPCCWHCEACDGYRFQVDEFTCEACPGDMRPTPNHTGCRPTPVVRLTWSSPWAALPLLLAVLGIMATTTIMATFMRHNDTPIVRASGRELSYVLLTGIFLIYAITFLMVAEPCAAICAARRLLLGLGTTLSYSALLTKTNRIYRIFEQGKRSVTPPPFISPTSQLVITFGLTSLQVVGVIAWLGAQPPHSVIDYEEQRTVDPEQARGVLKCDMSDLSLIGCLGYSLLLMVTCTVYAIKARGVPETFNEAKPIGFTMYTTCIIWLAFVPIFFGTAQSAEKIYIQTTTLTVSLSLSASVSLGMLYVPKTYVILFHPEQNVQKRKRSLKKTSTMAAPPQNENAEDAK
Assay: Agonist activity at rat mGlu6 receptor expressed in HEK293 cells assessed as IP1 accumulation by IP-One functional assay
Format: cell-based
pEC50: −log10 of the molar value.
Overview of reported pEC50 across a group of molecules:

substance-smiles: N[C@@H](C[C@@]1(C(=O)O)C[C@H]1C(=O)O)C(=O)O
pEC50: < 3.00
--
substance-smiles: N[C@@H](C[C@@H](CCC(=O)O)C(=O)O)C(=O)O
pEC50: < 3.00
--
substance-smiles: N[C@@H](C[C@]1(C(=O)O)C[C@@H]1C(=O)O)C(=O)O
pEC50: < 3.00
